Assay: Pharmacokinetic parameters for Sildernafil following oral administration of Sildernafil citrate tablets (Viagra).
Type: ADME, organism-based
Settings: human, in vivo, dosed compound id 36, dosed compound name SILDERNAFIL CITRATE, tissue Plasma
parameter_measured: bioavailability (%)
Provide only the numeric value, understood in %.

Measured bioavailability, CCCc1nn(C)c2c(=O)[nH]c(-c3cc(S(=O)(=O)N4CCN(C)CC4)ccc3OCC)nc12.O=C(O)CC(O)(CC(=O)O)C(=O)O [SILDENAFIL CITRATE] : 41
